Values of AC50 reported for Progesterone receptor (Homo sapiens, UniProt P06401) appear below.
Assay Endpoint: AC50

{"columns": ["Molecule", "Experimental System", "Measurement"],
 "data": [
  ["COc1cccc2c1C(=O)c1c(O)c3c(c(O)c1C2=O)C[C@@](O)(C(=O)CO)C[C@@H]3O[C@H]1C[C@H](N)[C@H](O)[C@H](C)O1", "Progesterone receptor (Homo sapiens, UniProt P06401)", "1.7 µM"],
  ["O=C(O[C@H]1C[N+]2(CCCOc3ccccc3)CCC1CC2)C(O)(c1cccs1)c1cccs1 [ACLIDINIUM BROMIDE]", "Progesterone receptor (Homo sapiens, UniProt P06401)", "> 30 µM"],
  ["CC(=O)Oc1ccccc1C(=O)O", "Progesterone receptor (Homo sapiens, UniProt P06401)", "> 30 µM"],
  ["CCN(CC)CC(=O)Nc1c(C)cccc1C", "Progesterone receptor (Homo sapiens, UniProt P06401)", "> 30 µM"]
]}

----------
- Experimental System: Beta-1 adrenergic receptor (Homo sapiens); further: assay procedure not described here
- Sequence (P08588 whole entry): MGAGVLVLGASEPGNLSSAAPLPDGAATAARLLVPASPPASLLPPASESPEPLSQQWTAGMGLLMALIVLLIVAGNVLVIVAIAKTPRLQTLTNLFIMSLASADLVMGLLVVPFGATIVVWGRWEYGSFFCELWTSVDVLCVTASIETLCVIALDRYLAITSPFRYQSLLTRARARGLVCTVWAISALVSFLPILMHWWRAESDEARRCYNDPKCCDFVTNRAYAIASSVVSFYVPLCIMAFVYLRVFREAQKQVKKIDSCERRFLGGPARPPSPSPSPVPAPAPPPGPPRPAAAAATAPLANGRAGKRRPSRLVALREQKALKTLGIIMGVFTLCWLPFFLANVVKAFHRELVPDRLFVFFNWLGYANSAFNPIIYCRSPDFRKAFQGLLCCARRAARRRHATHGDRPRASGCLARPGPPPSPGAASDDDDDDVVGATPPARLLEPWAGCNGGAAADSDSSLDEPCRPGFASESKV
- Assay type: functional

{"columns": ["Molecule", "Experimental System", "AC50"],
 "data": [
  ["CC(NC(C)(C)C)C(=O)c1cccc(Cl)c1 (stereo not drawn)", "Beta-1 adrenergic receptor (Homo sapiens)", "> 10 µM"],
  ["CC(=O)OCC1=C(C(=O)O)N2C(=O)[C@@H](NC(=O)CSc3ccncc3)[C@H]2SC1", "Beta-1 adrenergic receptor (Homo sapiens)", "> 10 µM"],
  ["CO/N=C(\\C(=O)N[C@@H]1C(=O)N2C(C(=O)[O-])=C(C[n+]3ccc(N)n3CCO)CS[C@H]12)c1csc(N)n1", "Beta-1 adrenergic receptor (Homo sapiens)", "> 30 µM"],
  ["COc1cc(N)cn[n+]1-c1ccccc1 [AMEZINIUM METILSULFATE]", "Beta-1 adrenergic receptor (Homo sapiens)", "> 30 µM"],
  ["CCCO[C@H]1[C@@H]([C@@H](COCc2ccc(Cl)cc2)OCc2ccc(Cl)cc2)OC(OCC)[C@@H]1O (stereo partly drawn) [CLOBENOSIDE]", "Beta-1 adrenergic receptor (Homo sapiens)", "> 30 µM"],
  ["CCN1C(=O)NC(c2ccccc2)C1=O (stereo not drawn)", "Beta-1 adrenergic receptor (Homo sapiens)", "> 30 µM"],
  ["CC(C)(N)Cc1ccccc1", "Beta-1 adrenergic receptor (Homo sapiens)", "> 10 µM"],
  ["CCCCC[C@H](O)CC[C@@H]1[C@H]2Cc3cccc(OCC(=O)O)c3C[C@H]2C[C@H]1O", "Beta-1 adrenergic receptor (Homo sapiens)", "> 30 µM"],
  ["CCC(=O)O[C@H](CC(=O)O)C[N+](C)(C)C [LEVOCARNITINE PROPIONATE]", "Beta-1 adrenergic receptor (Homo sapiens)", "> 30 µM"],
  ["CC(C(=O)O)c1ccc(C(=O)c2ccccc2)s1 (stereo not drawn)", "Beta-1 adrenergic receptor (Homo sapiens)", "> 10 µM"],
  ["O=C(O)c1nn(Cc2ccc(Cl)cc2Cl)c2ccccc12", "Beta-1 adrenergic receptor (Homo sapiens)", "> 30 µM"],
  ["CN1C2CCCC1CC(NC(=O)c1nn(C)c3ccccc13)C2 (stereo not drawn)", "Beta-1 adrenergic receptor (Homo sapiens)", "> 10 µM"],
  ["CCOC(=O)[C@H](CCc1ccccc1)N[C@@H](C)C(=O)N1Cc2ccccc2C[C@H]1C(=O)O", "Beta-1 adrenergic receptor (Homo sapiens)", "> 10 µM"],
  ["Nc1c2c(nc3ccccc13)CCCC2O (stereo not drawn)", "Beta-1 adrenergic receptor (Homo sapiens)", "> 30 µM"],
  ["CO/N=C(\\C(=O)N[C@@H]1C(=O)N2C(C(=O)O)=C(CSc3nc(C)c(CC(=O)O)s3)CS[C@H]12)c1csc(N)n1", "Beta-1 adrenergic receptor (Homo sapiens)", "> 30 µM"],
  ["CN(C)CCC(O)(c1ccccc1)c1ccccc1Cl (stereo not drawn)", "Beta-1 adrenergic receptor (Homo sapiens)", "> 10 µM"],
  ["CC(C)(Oc1ccc(Cl)cc1)C(=O)OCCOC(=O)c1cccnc1 [ETOFIBRATE]", "Beta-1 adrenergic receptor (Homo sapiens)", "> 30 µM"],
  ["CC1(C)O[C@@H]2C[C@H]3[C@@H]4CCC5=CC(=O)C=C[C@]5(C)[C@@]4(F)[C@@H](O)C[C@]3(C)[C@]2(C(=O)CO)O1 [TRIAMCINOLONE ACETONIDE]", "Beta-1 adrenergic receptor (Homo sapiens)", "> 30 µM"],
  ["COC(=O)[C@H]1[C@H]2C[C@@H]3c4[nH]c5ccccc5c4CCN3C[C@H]2C[C@@H](OC(=O)c2cc(OC)c(OC)c(OC)c2)[C@@H]1OC", "Beta-1 adrenergic receptor (Homo sapiens)", "> 10 µM"],
  ["N[C@@H](Cc1cc(I)c(Oc2cc(I)c(O)c(I)c2)c(I)c1)C(=O)O", "Beta-1 adrenergic receptor (Homo sapiens)", "> 30 µM"],
  ["OCCOCCN1CCN(C(c2ccccc2)c2ccc(Cl)cc2)CC1 (stereo not drawn) [HYDROXYZINE]", "Beta-1 adrenergic receptor (Homo sapiens)", "> 10 µM"],
  ["CC1=C(CC(=O)O)c2cc(F)ccc2/C1=C\\c1ccc([S+](C)[O-])cc1 (stereo not drawn)", "Beta-1 adrenergic receptor (Homo sapiens)", "> 10 µM"],
  ["OCC(CO)N[C@H]1C[C@](O)(CO)[C@@H](O)[C@H](O)[C@H]1O", "Beta-1 adrenergic receptor (Homo sapiens)", "> 30 µM"]
]}

----------
- Experimental System: Alpha-2A adrenergic receptor (Homo sapiens, UniProt P08913); further: assay procedure not described here
- Sequence (P08913 whole entry): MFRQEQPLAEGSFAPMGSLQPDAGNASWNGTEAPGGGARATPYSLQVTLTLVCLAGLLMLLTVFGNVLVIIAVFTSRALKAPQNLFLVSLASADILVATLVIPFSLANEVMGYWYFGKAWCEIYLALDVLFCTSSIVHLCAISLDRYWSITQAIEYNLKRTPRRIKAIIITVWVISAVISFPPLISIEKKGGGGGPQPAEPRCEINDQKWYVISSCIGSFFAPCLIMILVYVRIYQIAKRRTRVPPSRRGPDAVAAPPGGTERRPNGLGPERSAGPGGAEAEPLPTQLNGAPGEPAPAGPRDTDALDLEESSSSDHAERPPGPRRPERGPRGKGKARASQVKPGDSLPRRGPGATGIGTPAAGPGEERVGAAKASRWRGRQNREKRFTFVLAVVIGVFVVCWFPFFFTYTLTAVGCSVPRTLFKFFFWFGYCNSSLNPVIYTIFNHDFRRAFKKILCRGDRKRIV
- Type: functional, cell-based
Recorded AC50 values for a group of compounds are listed next.

{"columns": ["Compound", "Experimental System", "AC50"],
 "data": [
  ["C=CC1=C(C(=O)O)N2C(=O)[C@@H](NC(=O)/C(=N\\O)c3csc(N)n3)[C@H]2SC1", "Alpha-2A adrenergic receptor (Homo sapiens, UniProt P08913)", "> 10 µM"],
  ["CN1C(=O)CN=C(c2ccccc2F)c2cc([N+](=O)[O-])ccc21 [FLUNITRAZEPAM]", "Alpha-2A adrenergic receptor (Homo sapiens, UniProt P08913)", "> 10 µM"],
  ["CC(=O)SCC(Cc1ccccc1)C(=O)NCC(=O)OCc1ccccc1 (configuration not stated) [RACECADOTRIL]", "Alpha-2A adrenergic receptor (Homo sapiens, UniProt P08913)", "> 30 µM"],
  ["CC1CC(OC(=O)C(O)c2ccccc2)CC(C)(C)C1 (configuration not stated) [CYCLANDELATE]", "Alpha-2A adrenergic receptor (Homo sapiens, UniProt P08913)", "> 10 µM"],
  ["C[C@]12CCC(=O)C=C1[C@@H]1C[C@@H]1[C@H]1[C@@H]3[C@@H]4C[C@@H]4[C@@]4(CCC(=O)O4)[C@@]3(C)CC[C@@H]12 [DROSPIRENONE]", "Alpha-2A adrenergic receptor (Homo sapiens, UniProt P08913)", "> 30 µM"],
  ["O=C1CN=C(c2ccccc2Cl)c2cc([N+](=O)[O-])ccc2N1 [CLONAZEPAM]", "Alpha-2A adrenergic receptor (Homo sapiens, UniProt P08913)", "> 10 µM"],
  ["O=C(Cc1cccs1)N[C@@H]1C(=O)N2C(C(=O)[O-])=C(C[n+]3ccccc3)CS[C@H]12 [CEPHALORIDINE]", "Alpha-2A adrenergic receptor (Homo sapiens, UniProt P08913)", "> 30 µM"],
  ["CCCCOC(=O)C(=O)Nc1cccc(-c2nnn[nH]2)c1 [TAZANOLAST]", "Alpha-2A adrenergic receptor (Homo sapiens, UniProt P08913)", "> 30 µM"],
  ["CC(C)(Oc1ccc(Cl)cc1)C(=O)OCCOC(=O)c1cccnc1 [ETOFIBRATE]", "Alpha-2A adrenergic receptor (Homo sapiens, UniProt P08913)", "> 30 µM"],
  ["CN(C)CCOC(=O)C(c1ccccc1)C1(O)CCCC1 (configuration not stated) [CYCLOPENTOLATE]", "Alpha-2A adrenergic receptor (Homo sapiens, UniProt P08913)", "> 10 µM"],
  ["CC(=O)Oc1ccccc1C(=O)O [ASPIRIN]", "Alpha-2A adrenergic receptor (Homo sapiens, UniProt P08913)", "> 10 µM"],
  ["Nc1cc(N2CCCCC2)nc(N)[n+]1[O-] [MINOXIDIL]", "Alpha-2A adrenergic receptor (Homo sapiens, UniProt P08913)", "> 10 µM"],
  ["CCN(CC)Cc1nccn1-c1ccc([N+](=O)[O-])cc1C(=O)c1ccccc1Cl [NIZOFENONE]", "Alpha-2A adrenergic receptor (Homo sapiens, UniProt P08913)", "> 30 µM"],
  ["CC(C)/N=c1\\cc2n(-c3ccc(Cl)cc3)c3ccccc3nc-2cc1Nc1ccc(Cl)cc1 [CLOFAZIMINE]", "Alpha-2A adrenergic receptor (Homo sapiens, UniProt P08913)", "> 30 µM"],
  ["CCCCCCOC(=O)NC(=N)c1ccc(NCc2nc3cc(C(=O)N(CCC(=O)OCC)c4ccccn4)ccc3n2C)cc1 [DABIGATRAN ETEXILATE]", "Alpha-2A adrenergic receptor (Homo sapiens, UniProt P08913)", "> 30 µM"],
  ["CC(=O)[C@@]1(O)CC[C@H]2[C@@H]3C[C@H](C)C4=CC(=O)C=C[C@]4(C)[C@@]3(F)[C@@H](O)C[C@@]21C [FLUOROMETHOLONE]", "Alpha-2A adrenergic receptor (Homo sapiens, UniProt P08913)", "> 10 µM"],
  ["CCC(=O)[C@@]1(C)[C@H](C)C[C@H]2[C@@H]3CCC4=CC(=O)C=C[C@]4(C)[C@H]3[C@@H](O)C[C@@]21C [RIMEXOLONE]", "Alpha-2A adrenergic receptor (Homo sapiens, UniProt P08913)", "> 10 µM"]
]}
